# Protocol details: Stability in liver microsome, dog
# Format: in vitro ADME
# Test conditions: liver microsomes; dog liver microsome 0.1 mg/mL, compound 1 μM, NADPH 2 mM
Catalogue of half-life at 1 μM readings, one per entry.
Observed property: half-life at 1 μM (h)

| Item smiles | Unit symbol | Meas value |
| --- | --- | --- |
| COC(=O)C1=C(CN2CCO[C@H](CCC(=O)O)C2)NC(c2nccs2)=N[C@H]1c1ccc(F)cc1Cl | h | 9.39 |
| COC(=O)C1=C(CN2CCO[C@H](CCC(=O)O)C2)NC(c2nccs2)=N[C@H]1c1ccc(Cl)cc1Cl | h | 10.5 |
| CCOC(=O)C1=C(CN2CCO[C@H](CCC(=O)O)C2)NC(c2nccs2)=N[C@H]1c1ccc(F)cc1Br | h | 4.02 |
| CCOC(=O)C1=C(CN2CCO[C@H](CCC(=O)O)C2)NC(c2nccs2)=N[C@H]1c1ccc(F)cc1Cl | h | 2.96 |
| COC(=O)C1=C(CN2CCO[C@H](CCC(=O)O)C2)NC(c2nccs2)=N[C@H]1c1ccc(F)cc1Br | h | 5.72 |
| CCOC(=O)C1=C(CN2CCO[C@H](CCC(=O)O)C2)NC(c2nccs2)=N[C@H]1c1ccc(Cl)cc1Cl | h | 3.28 |

###

# Protocol details: PK of test compounds in beagle
# Format: in vivo, beagle dog
# Test conditions: dog, plasma, po, 2.5 mg/kg, AUC in 0 hour to infinite time

| Item smiles | AUC(0-inf), ng·h/mL |
| --- | --- |
| CCOC(=O)C1=C(CN2CCO[C@H](CCC(=O)O)C2)NC(c2nccs2)=N[C@H]1c1ccc(F)cc1Cl | 24800 |
| COC(=O)C1=C(CN2CCO[C@H](CCC(=O)O)C2)NC(c2nccs2)=N[C@H]1c1ccc(Cl)cc1Cl | 33300 |
| COC(=O)C1=C(CN2CCO[C@H](CCC(=O)O)C2)NC(c2nccs2)=N[C@H]1c1ccc(F)cc1Br | 24400 |
| CCOC(=O)C1=C(CN2CCO[C@H](CCC(=O)O)C2)NC(c2nccs2)=N[C@H]1c1ccc(Cl)cc1Cl | 16800 |
| COC(=O)C1=C(CN2CCO[C@H](CCC(=O)O)C2)NC(c2nccs2)=N[C@H]1c1ccc(F)cc1Cl | 28000 |

###

# Protocol details: PK of test compounds in beagle
# Format: in vivo, beagle dog
# Test conditions: dog, plasma, po, 2.5 mg/kg
Observed property: Tmax (min)

| Compound | Observed property | Meas value |
| --- | --- | --- |
| COC(=O)C1=C(CN2CCO[C@H](CCC(=O)O)C2)NC(c2nccs2)=N[C@H]1c1ccc(F)cc1Br [Example 11] | Tmax | 45 |
| CCOC(=O)C1=C(CN2CCO[C@H](CCC(=O)O)C2)NC(c2nccs2)=N[C@H]1c1ccc(F)cc1Cl [Example 9] | Tmax | 30 |
| COC(=O)C1=C(CN2CCO[C@H](CCC(=O)O)C2)NC(c2nccs2)=N[C@H]1c1ccc(Cl)cc1Cl [Example 13] | Tmax | 40 |
| COC(=O)C1=C(CN2CCO[C@H](CCC(=O)O)C2)NC(c2nccs2)=N[C@H]1c1ccc(F)cc1Cl [Example 10] | Tmax | 50 |
| CCOC(=O)C1=C(CN2CCO[C@H](CCC(=O)O)C2)NC(c2nccs2)=N[C@H]1c1ccc(Cl)cc1Cl [Example 12] | Tmax | 30 |

###

# Protocol details: PK of test compounds in beagle
# Assay type: in vivo, beagle dog
# Test conditions: dog, plasma, iv, 1 mg/kg

| Item smiles | Unit symbol | clearance |
| --- | --- | --- |
| CCOC(=O)C1=C(CN2CCO[C@H](CCC(=O)O)C2)NC(c2nccs2)=N[C@H]1c1ccc(Cl)cc1Cl | mL/min/kg | 2.12 |
| CCOC(=O)C1=C(CN2CCO[C@H](CCC(=O)O)C2)NC(c2nccs2)=N[C@H]1c1ccc(F)cc1Cl | mL/min/kg | 1.51 |
| COC(=O)C1=C(CN2CCO[C@H](CCC(=O)O)C2)NC(c2nccs2)=N[C@H]1c1ccc(Cl)cc1Cl | mL/min/kg | 1.49 |
| COC(=O)C1=C(CN2CCO[C@H](CCC(=O)O)C2)NC(c2nccs2)=N[C@H]1c1ccc(F)cc1Br | mL/min/kg | 1.59 |
| COC(=O)C1=C(CN2CCO[C@H](CCC(=O)O)C2)NC(c2nccs2)=N[C@H]1c1ccc(F)cc1Cl | mL/min/kg | 1.74 |
| CCOC(=O)C1=C(CN2CCO[C@H](CCC(=O)O)C2)NC(c2nccs2)=N[C@H]1c1ccc(F)cc1Br | mL/min/kg | 1.93 |

###

# Protocol details: PK of test compounds in beagle
# Type: in vivo, beagle dog
# Test conditions: dog, plasma, iv, 1 mg/kg, read-out: Vss
Mark YES only for Vd values smaller than 0.6 L/kg; exact matches and larger values are NO.

| Item smiles | Classification |
| --- | --- |
| CCOC(=O)C1=C(CN2CCO[C@H](CCC(=O)O)C2)NC(c2nccs2)=N[C@H]1c1ccc(F)cc1Cl | NO |
| CCOC(=O)C1=C(CN2CCO[C@H](CCC(=O)O)C2)NC(c2nccs2)=N[C@H]1c1ccc(F)cc1Br | NO |
| COC(=O)C1=C(CN2CCO[C@H](CCC(=O)O)C2)NC(c2nccs2)=N[C@H]1c1ccc(F)cc1Br | YES |
| CCOC(=O)C1=C(CN2CCO[C@H](CCC(=O)O)C2)NC(c2nccs2)=N[C@H]1c1ccc(Cl)cc1Cl | NO |
| COC(=O)C1=C(CN2CCO[C@H](CCC(=O)O)C2)NC(c2nccs2)=N[C@H]1c1ccc(F)cc1Cl | NO |
| COC(=O)C1=C(CN2CCO[C@H](CCC(=O)O)C2)NC(c2nccs2)=N[C@H]1c1ccc(Cl)cc1Cl | YES |

###

# Protocol details: PK of test compounds in beagle
# Type: in vivo, beagle dog
# Test conditions: dog, plasma, po, 5 mg/kg

| Compound | Cmax (ng/mL) |
| --- | --- |
| CCOC(=O)C1=C(CN2CCO[C@H](CCC(=O)O)C2)NC(c2nccs2)=N[C@H]1c1ccc(F)cc1Br [Example 2] | 6330 |

###

# Protocol details: Stability in liver microsome, mouse
# Type: in vitro ADME
# Test conditions: liver microsomes; mouse liver microsome 0.1 mg/mL, compound 1 μM, NADPH 2 mM
Could you mark each record met if its CLint scaled at 1 μM falls strictly under 100 mL/min/kg, and not met if it equals or exceeds it?

| Compound | Classification |
| --- | --- |
| COC(=O)C1=C(CN2CCO[C@H](CCC(=O)O)C2)NC(c2nccs2)=N[C@H]1c1ccc(Cl)cc1Cl [Example 13] | not met |
| CCOC(=O)C1=C(CN2CCO[C@H](CCC(=O)O)C2)NC(c2nccs2)=N[C@H]1c1ccc(F)cc1Cl [Example 9] | not met |
| COC(=O)C1=C(CN2CCO[C@H](CCC(=O)O)C2)NC(c2nccs2)=N[C@H]1c1ccc(F)cc1Cl [Example 10] | met |
| CCOC(=O)C1=C(CN2CCO[C@H](CCC(=O)O)C2)NC(c2nccs2)=N[C@H]1c1ccc(Cl)cc1Cl [Example 12] | not met |
| COC(=O)C1=C(CN2CCO[C@H](CCC(=O)O)C2)NC(c2nccs2)=N[C@H]1c1ccc(F)cc1Br [Example 11] | met |
| CCOC(=O)C1=C(CN2CCO[C@H](CCC(=O)O)C2)NC(c2nccs2)=N[C@H]1c1ccc(F)cc1Br [Example 2] | not met |

###

# Protocol details: PK of test compounds in beagle
# Assay type: in vivo, beagle dog
# Test conditions: dog, plasma, iv, 1 mg/kg
Measured Tmax by item

| Item smiles | Unit symbol | Tmax |
| --- | --- | --- |
| COC(=O)C1=C(CN2CCO[C@H](CCC(=O)O)C2)NC(c2nccs2)=N[C@H]1c1ccc(F)cc1Cl | min | 4.98 |
| COC(=O)C1=C(CN2CCO[C@H](CCC(=O)O)C2)NC(c2nccs2)=N[C@H]1c1ccc(F)cc1Br | min | 8.34 |
| COC(=O)C1=C(CN2CCO[C@H](CCC(=O)O)C2)NC(c2nccs2)=N[C@H]1c1ccc(Cl)cc1Cl | min | 4.98 |
| CCOC(=O)C1=C(CN2CCO[C@H](CCC(=O)O)C2)NC(c2nccs2)=N[C@H]1c1ccc(F)cc1Cl | min | 4.98 |
| CCOC(=O)C1=C(CN2CCO[C@H](CCC(=O)O)C2)NC(c2nccs2)=N[C@H]1c1ccc(F)cc1Br | min | 4.98 |
| CCOC(=O)C1=C(CN2CCO[C@H](CCC(=O)O)C2)NC(c2nccs2)=N[C@H]1c1ccc(Cl)cc1Cl | min | 4.98 |
